Target: full-length beta-Catenin (Uniprot ID P35222) (Homo sapiens (Human)) (UniProt P35222)
Sequence (P35222 whole entry): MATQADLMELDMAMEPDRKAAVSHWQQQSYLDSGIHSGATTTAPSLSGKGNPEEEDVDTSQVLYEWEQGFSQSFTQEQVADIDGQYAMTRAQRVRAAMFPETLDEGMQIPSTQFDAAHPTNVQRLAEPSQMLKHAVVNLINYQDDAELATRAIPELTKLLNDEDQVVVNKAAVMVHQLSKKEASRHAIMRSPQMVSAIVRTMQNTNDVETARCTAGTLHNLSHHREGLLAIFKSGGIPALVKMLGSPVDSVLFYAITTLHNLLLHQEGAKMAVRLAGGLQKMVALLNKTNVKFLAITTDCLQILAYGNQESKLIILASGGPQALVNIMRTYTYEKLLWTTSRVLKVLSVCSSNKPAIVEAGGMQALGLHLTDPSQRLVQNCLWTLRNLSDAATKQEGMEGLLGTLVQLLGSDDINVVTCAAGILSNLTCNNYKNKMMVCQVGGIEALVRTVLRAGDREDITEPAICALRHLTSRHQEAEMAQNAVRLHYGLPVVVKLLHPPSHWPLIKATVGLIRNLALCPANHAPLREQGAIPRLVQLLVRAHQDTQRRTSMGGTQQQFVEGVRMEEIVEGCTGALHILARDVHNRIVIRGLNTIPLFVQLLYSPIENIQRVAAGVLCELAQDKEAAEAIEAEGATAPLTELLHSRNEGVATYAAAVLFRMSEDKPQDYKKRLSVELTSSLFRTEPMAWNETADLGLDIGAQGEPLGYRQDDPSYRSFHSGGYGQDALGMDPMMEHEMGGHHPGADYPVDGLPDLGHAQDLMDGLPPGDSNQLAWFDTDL
Assay: fluorescence polarization competition; 10 nM full-length beta-catenin, competitor 10 nM 5FAM-TCF4(10-53)
Starred links: 1 amine or outer side, 2 acyl side, 3 side chain; linkers in the order of their positions; H or OH if unused. Positions of bridges follow the written chain, without caps; N, C: chain ends. Non-standard residues stand in square brackets, D forms with d. Primed or numbered codes have the meaning given here. (SO2MorphCH2)TriAzDap = (S)-2-amino-3-(4-((1,1-dioxidothiomorpholino)methyl)-1H-1,2,3-triazol-1-yl)propanoic acid, O=C([C@H](Cn1cc(CN2CCS(=O)(=O)CC2)nn1)N[*:1])[*:2]; (CH2Ppz)TriAzDap = (S)-2-amino-3-(4-(piperazin-1-ylmethyl)-1H-1,2,3-triazol-1-yl)propanoic acid, O=C([C@H](Cn1cc(CN2CCN([*:3])CC2)nn1)N[*:1])[*:2]; PyrS2(3) = (S)-3-amino-1-((pent-4-en-1-yloxy)carbonyl)pyrrolidine-3-carboxylic acid, stapling residue, C=CCCCOC(=O)N1CC[C@@](N[*:1])(C(=O)[*:2])C1; PyrS2″ = (S)-3-amino-1-((pent-4-en-1-yloxy)carbonyl)pyrrolidine-3-carboxylic acid (stapling residue), C=CCCCOC(=O)N1CC[C@@](N[*:1])(C(=O)[*:2])C1; (MorphCH2)TriAzDap = (S)-2-amino-3-(4-(morpholinomethyl)-1H-1,2,3-triazol-1-yl)propanoic acid, O=C([C@H](Cn1cc(CN2CCOCC2)nn1)N[*:1])[*:2]; B5(18) = 2,2-bis(4-pentenyl)glycine (2-amino-2-(pent-4-en-1-yl)hept-6-enoic acid), stitching residue, C=CCCCC(CCCC=C)(N[*:1])C(=O)[*:2]; B5(4) = 2,2-bis(4-pentenyl)glycine = 2-amino-2-(pent-4-en-1-yl)hept-6-enoic acid (stitching residue), C=CCCCC(CCCC=C)(N[*:1])C(=O)[*:2]; B5(5) = 2,2-bis(4-pentenyl)glycine, 2-amino-2-(pent-4-en-1-yl)hept-6-enoic acid (stitching residue), C=CCCCC(CCCC=C)(N[*:1])C(=O)[*:2]; TfeGA = (S)-2-amino-3-((carboxymethyl)(2,2,2-trifluoroethyl)amino)propanoic acid, O=C([C@H](CN(CC(=O)[*:3])CC(F)(F)F)N[*:1])[*:2]; PyrS2 = (S)-3-amino-1-((pent-4-en-1-yloxy)carbonyl)pyrrolidine-3-carboxylic acid, C=CCCCOC(=O)N1CC[C@@](N[*:1])(C(=O)[*:2])C1; PyrS = (S)-1-((allyloxy)carbonyl)-3-aminopyrrolidine-3-carboxylic acid, C=CCOC(=O)N1CC[C@@](N[*:1])(C(=O)[*:2])C1; B5 = 2-amino-2-(pent-4-en-1-yl)hept-6-enoic acid, C=CCCCC(CCCC=C)(N[*:1])C(=O)[*:2]; B6 = 2-amino-2-(hex-5-en-1-yl)oct-7-enoic acid, C=CCCCCC(CCCCC=C)(N[*:1])C(=O)[*:2]; Me2Asn = listed as N4-methyl-L-asparagine, CNC(=O)C[C@H](N[*:1])C(=O)[*:2]; Phe(3-COOH) = N[C@@H](Cc1cccc(C(=O)O)c1)C(=O)O; Phe(2-CF3) = N[C@@H](Cc1ccccc1C(F)(F)F)C(=O)O; Phe(2-Cl) = N[C@@H](Cc1ccccc1Cl)C(=O)O; Bta = N[C@@H](Cc1csc2ccccc12)C(=O)O; αAllylPro = C=CC[C@@]1(C(=O)O)CCCN1; tBuAla = CC(C)(C)C[C@H](N)C(=O)O; 3Thi = N[C@@H](Cc1ccsc1)C(=O)O; Aib = CC(C)(N)C(=O)O
Overview of recorded IC50 for various binders

Binder | Unit annotation | IC50
Ac-[αAllylPro]D[tBuAla][B6]D[Phe(3-COOH)]QAFL[PyrS][Phe(2-CF3)][Bta]A-NH2 (staple 1-4, 4-11; also: earlier-eluting staple isomer composition) [I-2506] | nM | 332
Ac-[αAllylPro]D[tBuAla][B5(5)]D[TfeGA]AA[(CH2Ppz)TriAzDap]L[PyrS2″][3Thi][Bta]Q-NH2 (staple 1-4, 4-11; also: separately listed staple isomer composition) [I-1857] | nM | 4020
Ac-[αAllylPro]D[tBuAla][B5(4)]D[Phe(3-COOH)]QAFL[PyrS2″][Phe(2-CF3)][7FBztA]A-NH2 (staple 1-4, 4-11) [I-2489] | nM | 29
Ac-[αAllylPro]N[tBuAla][B5(18)]D[Phe(3-COOH)]AAFL[PyrS2(3)][Phe(2-Cl)][Bta]S-NH2 (staple 1-4, 4-11) [I-1853] | nM | 114
Ac-[αAllylPro]D[tBuAla][B5(5)]D[TfeGA]AA[(MorphCH2)TriAzDap]L[PyrS2″][3Thi][Bta]Q-NH2 (staple 1-4, 4-11; also: separately listed staple isomer composition) [I-1858] | nM | 1110
Ac-[αAllylPro]D[tBuAla][B5(5)]D[TfeGA]AA[(MorphCH2)TriAzDap]L[PyrS2″][3Thi][Bta]Q-NH2 (staple 1-4, 4-11; also: separately listed staple isomer composition) [I-1859] | nM | 1110
Ac-[αAllylPro]D[tBuAla][B5]NT[Aib]AFN[PyrS2][3Thi][Bta][Me2Asn]-NH2 (staple 1-4, 4-11) [I-2494] | nM | 102
Ac-[αAllylPro]D[tBuAla][B5(5)]D[TfeGA]AA[(SO2MorphCH2)TriAzDap]L[PyrS2″][3Thi][Bta]Q-NH2 (staple 1-4, 4-11) [I-1860] | nM | 512

Source: patent US20240116985A1
